Sourced from patent USRE31617E

- System: genetically hypertensive rats
- TEST: Blood pressure change after oral dosing (intra-arterial cannula and transducer)
- Format: in vivo, rat
- CONDITION DESCRIPTION: Rattus norvegicus, po, P.O. 50 mg./kg., + increase, - decrease in b.p., tested as hydrochloride salts
PARAMETER MEASURED: change in vivo at 50 mg/kg (%)
Respond numerically; units are % and should not be typed.

Lookup result for `COc1cccc2c1CN1CCC(=O)NC1=N2` ; measured change in vivo at 50 mg/kg: 5

change in vivo at 50 mg/kg recorded for this compound, `COc1ccc2c(c1)CN1CCC(=O)NC1=N2` , is 19

The measured change in vivo at 50 mg/kg associated with `COc1cccc2c1N=C1NC(=O)CCN1C2` reads -1

# change in vivo at 50 mg/kg (compound: `COc1cc2c(cc1OC)N=C1NC(=O)CCN1C2` ) is -7
